Reference source: patent US20260250290A1

Catalogue of pIC50 values
- Target Under Test: full length SGK1 (Homo sapiens)
- Construct: 125 μM full length SGK1 (Life Technologies Part #PR7358A); purchased Life Technologies PR7358A
- Test Details: SGK1 inhibition Assay A (Caliper LabChip electrophoretic separation of fluorescent peptide substrate and phosphorylated product)
- Format: biochemical
- Run Conditions: Assay A; 20 μM ATP, 40 min incubation; read-out: SGK1 IC50
pIC50: −log10 of the molar value. Counter-ions that a name gives are not always drawn.
Observable: pIC50

- Compound: "CS(=O)(=O)c1ccc(-c2cc(N3CCC[C@@H](NC(=O)c4cccs4)C3)c3c(N)ncnn23)cc1 [Example 88, TFA]"
  Observable: "pIC50"
  Result Number: 8.10
- Compound: "COc1cnccc1C(=O)N[C@@H]1CCCN(c2cc(C3=CCN(C(C)=O)C3)n3ncnc(N)c23)C1 [Example 258]"
  Observable: "pIC50"
  Result Number: 7.17
- Compound: "CC(=O)N1CC=C(c2cc(N3CCC[C@@H](NC(=O)c4sc(Cl)cc4OC4CCCN(C)C4)C3)c3c(N)ncnn23)C1 (single isomer, unassigned) [Example 595]"
  Observable: "pIC50"
  Result Number: 7.43
- Compound: "CS(=O)(=O)c1ccc(-c2cc(N3CCC[C@@H](NC(=O)c4ccc(Br)s4)C3)c3c(N)ncnn23)cc1 [Example 95, TFA]"
  Observable: "pIC50"
  Result Number: 8.22
- Compound: "Cc1cc(-c2cc(N3CCC[C@@H](NC(=O)c4sc(Cl)cc4OCCN(C)C)C3)c3c(N)ncnn23)cn(C(C)C)c1=O [Example 693]"
  Observable: "pIC50"
  Result Number: 7.16
- Compound: "CC(=O)N1CC=C(c2cc(N3CCC[C@@H](NC(=O)c4cccc(NCCN(C)C)n4)C3)c3c(N)ncnn23)C1 [Example 761]"
  Observable: "pIC50"
  Result Number: 8.15
- Compound: "CC(=O)N1CC=C(c2cc(N3CCC[C@@H](NC(=O)c4sc(Cl)cc4OC4CC(N(C)C)C4)C3)c3c(N)ncnn23)C1 (stereo partly drawn) [Example 599]"
  Observable: "pIC50"
  Result Number: 8.10
- Compound: "CC(=O)N1CC=C(c2cc(N3CCC[C@@H](NC(=O)c4cccc(N[C@@H]5CCN(C)C5)n4)C3)c3c(N)ncnn23)C1 [Example 760]"
  Observable: "pIC50"
  Result Number: 7.64
- Compound: "Cc1cc(C(=O)N[C@@H]2CCCN(c3cc(-c4ccc(S(C)(=O)=O)cc4)n4ncnc(N)c34)C2)sn1 [Example 73]"
  Observable: "pIC50"
  Result Number: 8.10
- Compound: "CC(=O)N1CC=C(c2cc(N3CCC[C@@H](NC(=O)c4cccc(OC5CCN(C(C)C)CC5)n4)C3)c3c(N)ncnn23)C1 [Example 751]"
  Observable: "pIC50"
  Result Number: 7.43
- Compound: "CC(=O)N1CC=C(c2cc(N3CCC[C@@H](NC(=O)c4nc(F)ccc4N4CCN(C)CC4)C3)c3c(N)ncnn23)C1 [Example 745]"
  Observable: "pIC50"
  Result Number: 6.44
- Compound: "Nc1ncnn2c(-c3ccnc(F)c3)cc(N3CCC[C@@H](NC(=O)c4cc(Cl)sc4Cl)C3)c12 [Example 157]"
  Observable: "pIC50"
  Result Number: 7.82
- Compound: "CC(=O)N1CC=C(c2cc(N3CCC[C@@H](NC(=O)c4cc(C(C)C)[nH]n4)C3)c3c(N)ncnn23)C1 [Example 458]"
  Observable: "pIC50"
  Result Number: 8.52
- Compound: "COc1cncc(C(=O)N[C@@H]2CCCN(c3cc(-c4ccc(S(C)(=O)=O)cc4)n4ncnc(N)c34)C2)c1 [Example 102, TFA]"
  Observable: "pIC50"
  Result Number: 7.35
- Compound: "COC(=O)c1ccc(-c2cc(N3CCC[C@@H](NC(=O)c4ccc(Cl)s4)C3)c3c(N)ncnn23)n1C [Example 238]"
  Observable: "pIC50"
  Result Number: 7.04
- Compound: "CC(C)(O)c1ccc(-c2cc(N3CCC[C@@H](NC(=O)c4ccc(Cl)s4)C3)c3c(N)ncnn23)cc1 [Example 218, TFA]"
  Observable: "pIC50"
  Result Number: 6.63
- Compound: "CC(=O)N1CC=C(c2cc(N3CCC[C@@H](NC(=O)c4sc(C5CC5)cc4OC4CCNCC4)C3)c3c(N)ncnn23)C1 [Example 376E]"
  Observable: "pIC50"
  Result Number: 8.52
- Compound: "Cc1cc(N2CCOCC2)c(C(=O)N[C@@H]2CCCN(c3cc(-c4ccnc(F)c4)n4ncnc(N)c34)C2)s1 [Example 198, TFA]"
  Observable: "pIC50"
  Result Number: 8.70
- Compound: "CC(=O)N1CC=C(c2cc(N3CCC[C@@H](NC(=O)c4ccc(-c5ccccc5)o4)C3)c3c(N)ncnn23)C1 [Example 454]"
  Observable: "pIC50"
  Result Number: 9.00
- Compound: "COC(=O)N1CC=C(c2cc(N3CCC[C@@H](NC(=O)c4sc(C(F)F)cc4N4CCOCC4)C3)c3c(N)ncnn23)C1 [Example 321]"
  Observable: "pIC50"
  Result Number: 7.89
- Compound: "CS(=O)(=O)c1ccc(-c2cc(N3CCC[C@@H](NC(=O)c4cnns4)C3)c3c(N)ncnn23)cc1 [Example 70]"
  Observable: "pIC50"
  Result Number: 7.68
- Compound: "CC1(C)CC1C(=O)N1CC=C(c2cc(N3CCC[C@@H](NC(=O)c4sc(Cl)cc4OCCN4CCOCC4)C3)c3c(N)ncnn23)C1 (stereo partly drawn) [Example 261]"
  Observable: "pIC50"
  Result Number: 7.49
- Compound: "C=Cc1cccc(C(=O)N[C@@H]2CCCN(c3cc(-c4ccc(S(C)(=O)=O)cc4)n4ncnc(N)c34)C2)c1 [Example 80]"
  Observable: "pIC50"
  Result Number: 7.85
- Compound: "Nc1ncnn2c(-c3ccc(OC(F)F)cc3)cc(N3CCC[C@@H](NC(=O)c4ccc(Cl)s4)C3)c12 [Example 225, TFA]"
  Observable: "pIC50"
  Result Number: 7.82
- Compound: "CN(C)CCOc1cc(Cl)sc1C(=O)N[C@@H]1CCCN(c2cc(C3=CCN(C(=O)C4CCC4)CC3)n3ncnc(N)c23)C1 [Example 183, TFA]"
  Observable: "pIC50"
  Result Number: 7.38
- Compound: "CN(C)CCOc1cc(Cl)sc1C(=O)N[C@@H]1CCCN(c2cc(-c3ccc(-n4cnnn4)c(F)c3)n3ncnc(N)c23)C1 [Example 188]"
  Observable: "pIC50"
  Result Number: 8.40
- Compound: "CC(=O)N1CC=C(c2cc(N3CCC[C@@H](NC(=O)c4sc(Cl)cc4OC4CC(N(C)C)C4)C3)c3c(N)ncnn23)C1 (stereo partly drawn) [Example 598]"
  Observable: "pIC50"
  Result Number: 8.22

====

Catalogue of pIC50 values
- Target Under Test: full length SGK1 (Homo sapiens, UniProt O00141)
- Construct: 125 μM full length SGK1 (Life Technologies Part #PR7358A); purchased Life Technologies PR7358A
- Sequence (O00141 whole entry): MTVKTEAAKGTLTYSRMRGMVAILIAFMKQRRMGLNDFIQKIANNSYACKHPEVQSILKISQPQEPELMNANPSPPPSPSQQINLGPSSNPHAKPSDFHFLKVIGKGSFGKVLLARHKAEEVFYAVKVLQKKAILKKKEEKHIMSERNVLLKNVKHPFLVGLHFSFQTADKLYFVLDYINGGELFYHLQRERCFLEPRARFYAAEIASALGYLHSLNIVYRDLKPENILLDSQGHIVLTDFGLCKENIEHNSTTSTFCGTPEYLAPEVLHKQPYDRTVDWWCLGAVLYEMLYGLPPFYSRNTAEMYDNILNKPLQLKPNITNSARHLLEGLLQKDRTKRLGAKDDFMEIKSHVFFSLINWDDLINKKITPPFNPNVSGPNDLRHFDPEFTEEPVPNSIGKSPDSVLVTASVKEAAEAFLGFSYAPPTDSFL
- Test Details: SGK1 inhibition Assay A (Caliper LabChip electrophoretic separation of fluorescent peptide substrate and phosphorylated product)
- Format: biochemical
- Run Conditions: Assay A; 20 μM ATP, 40 min incubation; read-out: SGK1 IC50
pIC50: −log10 of the molar value. Structures can show the parent of a compound that is named as a salt.

- Compound: "COC(=O)N1CC=C(c2cc(N3CCC[C@@H](NC(=O)c4sc(C(F)F)cc4OC4CCN(C(C)=O)CC4)C3)c3c(N)ncnn23)C1"
  pIC50: 8.30
- Compound: "Nc1ncnn2c(C3=CCN(C(=O)C4CCOCC4)C3)cc(N3CCC[C@@H](NC(=O)c4ccc(Cl)s4)C3)c12"
  pIC50: 8.00
- Compound: "CN(C)CCOc1cc(Cl)sc1C(=O)N[C@@H]1CCCN(c2cc(C3=CCN(C(=O)CC(F)(F)F)CC3)n3ncnc(N)c23)C1 [Example 181, TFA]"
  pIC50: 7.77
